The compounds listed here are annotated with their GI50.
test system: CAKI-1; assay: NCI tumour cell line growth inhibition, 48 h
The source made the active and inactive calls. No stated cut-off is given here; in the data, active = GI50 up to about 1.1 µM and inactive = higher.

- COMPOUND: "COc1ccc(N(C(=O)Nc2ccc(Cl)c(Cl)c2)C2c3cccn3C(=O)N2c2ccc(Cl)c(Cl)c2)cc1 (stereo unspecified)"
  GI50: "26.9 µM (inactive)"
- COMPOUND: "CC1=C(C(=O)NNC(=O)Cc2ccccc2)CC(C(=O)NNC(=O)Cc2ccccc2)=C(C)N1"
  GI50: "> 100 µM (inactive)"
- COMPOUND: "C1OC1CN1CCN(CC2CO2)CC1 (stereo unspecified)"
  GI50: "26.7 µM (inactive)"
- COMPOUND: "c1cc(-c2ccc(Oc3ccc(-c4ccncc4)cc3)cc2)ccn1"
  GI50: "3.22 µM (inactive)"
- COMPOUND: "O=c1[nH]c(-n2[nH]c3c(c2=O)CCCC3)nc(O)c1-c1ccccc1"
  GI50: "> 100 µM (inactive)"
- COMPOUND: "Cn1c(=O)oc2cc(C(O)CN3CCN(Cc4ccccn4)CC3)c(Cl)cc21 (stereo unspecified)"
  GI50: "> 100 µM (inactive)"

* * *

The compounds listed here are annotated with their GI50.
system: SF-539; test: NCI tumour cell line growth inhibition, 48 h
Active and inactive are the calls of the source. No stated cut-off is given here; in the data, active = GI50 up to about 1.1 µM and inactive = higher.
REPORTED METRIC: GI50

- COMPOUND: "Cc1ccc2c(c1)C(=O)N1CCC[C@H]1C=N2"
  REPORTED METRIC: "GI50"
  VAL: "18.3 µM (inactive)"
- COMPOUND: "COC1[C@H](NC(=O)OC(C)(C)C)C(=O)N1Cc1ccccc1 (stereo not given in full)"
  REPORTED METRIC: "GI50"
  VAL: "> 100 µM (inactive)"
- COMPOUND: "Cc1ccc(N/C(=C(/C(Cl)=C(Cl)Cl)[N+](=O)[O-])n2nnc3ccccc32)cc1"
  REPORTED METRIC: "GI50"
  VAL: "15.2 µM (inactive)"
- COMPOUND: "CSc1cnn(CCC#N)c(=O)n1"
  REPORTED METRIC: "GI50"
  VAL: "> 100 µM (inactive)"
- COMPOUND: "Cn1c(C2CCCc3c2c2ccccc2n3C)cc2ccccc21 (stereo not given)"
  REPORTED METRIC: "GI50"
  VAL: "> 318 µM (inactive)"
- COMPOUND: "Cc1cc(C)c2c(=N)c3ccccc3n(CCCCCCCCn3c4ccccc4c(=N)c4c(C)cc(C)nc43)c2n1"
  REPORTED METRIC: "GI50"
  VAL: "1.78 µM (inactive)"
- COMPOUND: "O=C(O)c1ccccc1C1CCCc2c1[nH]c1ccccc21 (stereo not given)"
  REPORTED METRIC: "GI50"
  VAL: "88.7 µM (inactive)"
- COMPOUND: "COC1=CC(=O)C2=C(C1=O)[C@H]1CC[C@]3(C)C(=O)CC[C@H]3[C@@H]1CC2"
  REPORTED METRIC: "GI50"
  VAL: "19.6 µM (inactive)"
- COMPOUND: "N=c1c2ccccc2sc2nc3ccccc3n12"
  REPORTED METRIC: "GI50"
  VAL: "> 100 µM (inactive)"
- COMPOUND: "Cc1cc(NCCCCCCNc2cc(C)nc3cc(N(C)C)ccc23)c2ccc(N(C)C)cc2n1"
  REPORTED METRIC: "GI50"
  VAL: "59.6 µM (inactive)"
